- Tested on: Bacillus subtilis
- assay.name: Antibacterial activity against Bacillus subtilis at 80 ug/ml incubated for 24 hrs by resazurin dye based broth microdilution method
- Assay type: functional, organism-based
- test.parameters: dose 80.0 µg/ml
Calls of active or inactive are those of the source. The rule behind the calls is not given here.
measurement.type: Activity

Use the examples below as a reference point.
{"columns": ["smiles.structure", "Activity"],
 "data": [
  ["CC#CCOc1ccc(C[C@H](NC(=O)CCCCC)C(=O)OC)cc1", "inactive"],
  ["C/C(=C/COc1ccc(CC(=O)O)cc1)C(=O)O", "inactive"],
  ["CC#CCOc1ccc(C[C@H](NC(=O)CCCCC)C(=O)O)cc1", "inactive"],
  ["CCCCCC(=O)N[C@@H](Cc1ccc(OCC#CCO)cc1)C(=O)O", "inactive"],
  ["CC#CCOc1ccc(C[C@H](NC(=O)CCCC)C(=O)O)cc1", "inactive"]
]}

Now turn to the next compound.
Identify measured Activity associated with CC#CCOc1ccc(C[C@H](NC(=O)CCC)C(=O)O)cc1
inactive
